From: patent US6562862B1

biological target: Y1 (Homo sapiens); construct: In this assay the cell line SK-N-MC was employed; endogenous in cells; host or cells: SK-N-MC cells (homogenate of scraped, pelleted cells), received from Sloane-Kettering Memorial Hospital; experiment: Neuropeptide Y Binding Assay (125I-peptide YY, SK-N-MC cell homogenate); settings: displacement of 0.1 nM 125I-peptide YY, SK-N-MC cells, about two hours at room temperature
Sequence (P25929 whole entry): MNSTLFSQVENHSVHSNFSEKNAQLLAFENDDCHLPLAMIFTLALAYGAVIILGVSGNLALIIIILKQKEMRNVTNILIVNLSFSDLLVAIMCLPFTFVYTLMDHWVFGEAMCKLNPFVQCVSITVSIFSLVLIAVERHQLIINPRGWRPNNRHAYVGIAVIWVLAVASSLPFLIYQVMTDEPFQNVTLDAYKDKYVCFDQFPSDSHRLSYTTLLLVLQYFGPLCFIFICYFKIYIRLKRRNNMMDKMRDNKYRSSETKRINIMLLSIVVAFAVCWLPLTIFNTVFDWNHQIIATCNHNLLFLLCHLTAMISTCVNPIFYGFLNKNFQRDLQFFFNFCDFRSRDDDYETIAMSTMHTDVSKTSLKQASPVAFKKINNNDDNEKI
quantity: IC50

Illustrative cases are given below, each with its answer.
So what does the record say about IC50 for O=C(c1ccc(OCCN2CCCCCC2)cc1)c1c(-c2ccc(O)cc2)sc2cc(O)ccc12 [R1=H, R2=1-hexamethylenimino, R3=H] ?
~20 µM

Record request: IC50 value, item O=C(c1ccc(OCCN2CCCC2)cc1)c1c(-c2ccc(O)cc2)sc2cc(O)ccc12
~10 µM

Tell me the measured IC50 of O=C(c1ccc(OCCN2CCCC2)cc1)c1c(-c2ccc(O)cc2)sc2cc(O)ccc12 [R1=H, R2=1-pyrrolidine, R3=H] , please.
~17 µM

# evaluate next
Form field: reported IC50 of COc1ccc2c(C(=O)c3ccc(OCCN4CCCCC4)cc3)c(-c3ccc(O)cc3)sc2c1 [R1=CH3, R2=1-piperidine, R3=H]
~12 µM
